# Test system: LOX IMVI
# measurementDescription: Cytotoxicity against human LOXIMVI cells assessed as cell growth at 100 uM after 48 hrs by sulforhodamine B assay relative to control
# Format: functional
# conditionDetails: read-out: Activity
The following compounds are listed with their measured growth at 100 µM values.
Reply with the number, then its unit.

Solved entries:
structureSmiles | testedSystem | growth at 100 µM
COc1cc(-c2cc(/C=C/C(=O)c3ccc(F)c(F)c3)[nH]n2)cc(OC)c1OC | LOX IMVI | -86%
COc1ccc(C(=O)/C=C/c2cc(-c3cc(OC)c(OC)c(OC)c3)n[nH]2)cc1 | LOX IMVI | -32%

// query GET /values?readout=growth at 100 µM&item= "COc1ccc(C(=O)/C=C/c2cc(-c3cc(OC)c(OC)c(OC)c3)n[nH]2)cc1OC"
// result -79%

// query Can you handle "COc1ccc(-c2cc(/C=C/C(=O)c3cc(OC)c(OC)c(OC)c3)[nH]n2)cc1OC" next?
// result -69%

====

# Tested on: TK-10
# measurementDescription: Cytotoxicity against human TK10 cells assessed as cell growth at 10 uM after 48 hrs by sulforhodamine B assay relative to control
# Assay type: functional
# conditionDetails: TK-10, 48 h, read-out: Activity
The entries below come with measured growth at 10 µM values attached.
# number only, unit % dropped from output

Here's what some known entries look like.
structureSmiles | testValue
COc1cc(-c2cc(/C=C/C(=O)c3ccc(Cl)c(Cl)c3)[nH]n2)cc(OC)c1OC | 46
COc1ccc(C(=O)/C=C/c2cc(-c3cc(OC)c(OC)c(OC)c3)n[nH]2)cc1OC | 100
COc1cc(C(=O)/C=C/c2cc(-c3cc(OC)c(OC)c(OC)c3)n[nH]2)cc(OC)c1OC | -98
COc1cc(-c2cc(/C=C/C(=O)c3ccc(F)c(F)c3)[nH]n2)cc(OC)c1OC | -13

Shift focus to the following entry.
// query Identify the measured growth at 10 µM of "COc1ccc(-c2cc(/C=C/C(=O)c3ccc(N)cc3)[nH]n2)cc1OC" for TK-10.
// result 56

====

# System: U-251
# measurementDescription: Cytotoxicity against human U251 cells assessed as cell growth at 0.01 uM after 48 hrs by sulforhodamine B assay relative to control
# Type: functional
# conditionDetails: U-251, 48 h, read-out: Activity
readoutName: growth at 0.01 µM

structureSmiles | testedSystem | readoutName | testValue
COc1cc(-c2cc(/C=C/C(=O)c3ccc4c(c3)OCO4)[nH]n2)cc(OC)c1OC | U-251 | growth at 0.01 µM | 96%
COc1cc(-c2cc(/C=C/C(=O)c3ccc(F)c(F)c3)[nH]n2)cc(OC)c1OC | U-251 | growth at 0.01 µM | 97%
COc1ccc(C(=O)/C=C/c2cc(-c3ccc(OC)c(OC)c3)n[nH]2)cc1OC | U-251 | growth at 0.01 µM | 95%

// query So what's the measured growth at 0.01 µM for this one? "COc1ccc(C(=O)/C=C/c2cc(-c3cc(OC)c(OC)c(OC)c3)n[nH]2)cc1"
// result 97%

// query // same read-out, input: "COc1cc2c(cc1OC)C(=O)/C(=C/c1cc(-c3ccc4c(c3)OCO4)n[nH]1)C2"
// result 97%

====

Recorded growth at 10 µM by entry
# Tested on: HOP-92
# measurementDescription: Cytotoxicity against human HOP92 cells assessed as cell growth at 10 uM after 48 hrs by sulforhodamine B assay relative to control
# Assay type: functional
# conditionDetails: HOP-92, 48 h, read-out: Activity
The reply should consist of the numeric value with the unit placed after it.

Example entries and their recorded answers appear below.
structureSmiles | growth at 10 µM
COc1cc(C(=O)/C=C/c2cc(-c3cc(OC)c(OC)c(OC)c3)n[nH]2)cc(OC)c1OC | -67%
COc1cc(-c2cc(/C=C/C(=O)c3ccc(Cl)c(Cl)c3)[nH]n2)cc(OC)c1OC | -8%
COc1ccc(C(=O)/C=C/c2cc(-c3ccc(OC)c(OC)c3)n[nH]2)cc1OC | -7%

// query For the compound "COc1ccc(C(=O)/C=C/c2cc(-c3cc(OC)c(OC)c(OC)c3)n[nH]2)cc1" , what growth at 10 µM is on record?
// result -56%

====

# System: RXF 393
# measurementDescription: Cytotoxicity against human RXF393 cells assessed as cell growth at 0.01 uM after 48 hrs by sulforhodamine B assay relative to control
# Type: functional
# conditionDetails: RXF 393, 48 h, read-out: Activity
readoutName: growth at 0.01 µM (%)
Entry rule: numbers only, all in %.

Past entries and their recorded results:
structureSmiles | testedSystem | outputUnit | testValue
COc1ccc(C(=O)/C=C/c2cc(-c3ccc4c(c3)OCO4)n[nH]2)cc1OC | RXF 393 | % | 98
COc1cc(C(=O)/C=C/c2cc(-c3ccc4c(c3)OCO4)n[nH]2)cc(OC)c1OC | RXF 393 | % | 93
COc1cc2c(cc1OC)C(=O)/C(=C/c1cc(-c3ccc4c(c3)OCO4)n[nH]1)C2 | RXF 393 | % | 97

// query Requested read-out growth at 0.01 µM, target or system RXF 393, entry "COc1ccc(C(=O)/C=C/c2cc(-c3cc(OC)c(OC)c(OC)c3)n[nH]2)cc1"
// result 93

====

# Tested on: NCI/ADR-RES
# measurementDescription: Cytotoxicity against human NCI/ADR-RES cells assessed as cell growth at 1 uM after 48 hrs by sulforhodamine B assay relative to control
# Format: functional
# conditionDetails: read-out: Activity
readoutName: growth at 1 µM (%)
Use % as the unit, but write only the number.

Examples with answers:
structureSmiles | testedSystem | testValue
COc1ccc(C(=O)/C=C/c2cc(-c3cc(OC)c(OC)c(OC)c3)n[nH]2)cc1 | NCI/ADR-RES | 90
COc1cc(-c2cc(/C=C/C(=O)c3ccc(Cl)c(Cl)c3)[nH]n2)cc(OC)c1OC | NCI/ADR-RES | 92
COc1ccc(-c2cc(/C=C/C(=O)c3ccc(N)cc3)[nH]n2)cc1OC | NCI/ADR-RES | 99
COc1ccc(-c2cc(/C=C/C(=O)c3cc(OC)c(OC)c(OC)c3)[nH]n2)cc1OC | NCI/ADR-RES | 81
COc1cc2c(cc1OC)C(=O)/C(=C/c1cc(-c3ccc4c(c3)OCO4)n[nH]1)C2 | NCI/ADR-RES | 86

Let us examine a further case.
// query Quick one: growth at 1 µM of "COc1ccc(-c2cc(/C=C/C(=O)c3ccc(N)cc3)[nH]n2)cc1" ?
// result 85

====

# Test system: SF-268
# measurementDescription: Cytotoxicity against human SF268 cells assessed as growth inhibition after 48 hrs by sulforhodamine B assay
# Assay type: functional
# conditionDetails: SF-268, 48 h, read-out: LC50 (the source's name)
Overview of reported CC50 across a group of molecules:
The answer is to be given in µM; state only the numeric part.

// query What measured CC50 is associated with "COc1ccc(-c2cc(/C=C/C(=O)c3ccc(OC)c(OC)c3)[nH]n2)cc1" on SF-268?
// result 27.3

// query Now consider "COc1cc(C(=O)/C=C/c2cc(-c3ccc4c(c3)OCO4)n[nH]2)cc(OC)c1OC" and answer again.
// result 31.2

// query One more molecule: "COc1ccc(C(=O)/C=C/c2cc(-c3cc(OC)c(OC)c(OC)c3)n[nH]2)cc1OC"
// result 8.59

====

# Tested on: NCI-H322M
# measurementDescription: Cytotoxicity against human NCI-H322M cells assessed as growth inhibition after 48 hrs by sulforhodamine B assay
# Assay type: functional
readoutName: GI50 (nM)
# value in nM; strip the unit string

Some molecules with recorded GI50:
structureSmiles | testedSystem | GI50 / nM
COc1cc(-c2cc(/C=C/C(=O)c3ccc(N)cc3)[nH]n2)cc(OC)c1OC | NCI-H322M | 2230
COc1cc(C(=O)/C=C/c2cc(-c3ccc4c(c3)OCO4)n[nH]2)cc(OC)c1OC | NCI-H322M | 2090
COc1ccc(-c2cc(/C=C/C(=O)c3ccc(N)cc3)[nH]n2)cc1OC | NCI-H322M | 4340

Shifting focus to the molecule that follows.
// query Recorded GI50 of "COc1ccc(-c2cc(/C=C/C(=O)c3cc(OC)c(OC)c(OC)c3)[nH]n2)cc1OC" , please.
// result 2020

====

Item-by-item account of growth at 1 µM
# Test system: MOLT-4
# measurementDescription: Cytotoxicity against human MOLT4 cells assessed as cell growth at 1 uM after 48 hrs by sulforhodamine B assay relative to control
# Assay type: functional
# conditionDetails: MOLT-4, 48 h, read-out: Activity
Numeric answer only, unit % assumed.

// query Record "COc1ccc(C(=O)/C=C/c2cc(-c3cc(OC)c(OC)c(OC)c3)n[nH]2)cc1OC" : what is its growth at 1 µM with MOLT-4?
// result 88

// query Same thing, different molecule: "COc1ccc(-c2cc(/C=C/C(=O)c3ccc(OC)c(OC)c3)[nH]n2)cc1"
// result 95
